SYSTEM_UNDER_TEST: T1, human DLL4 expressed on cells (CHO-hDLL4; HEK293-hDLL4) (human, UniProt Q9NR61 27-685)
T1 construct: full length human DLL4 overexpressed on CHO cells (FMAT, FACS) or HEK293 cells (reporter assay)
TEST_METHOD_NOTES: FACS; summary table, column taken as hDLL4
READOUT_KIND: EC50 (nM)
Number in nM, nothing else.

Here's what some known entries look like.
[
  {
    "BINDER": "DLLBII129E11 (VHH, not shown: small tags and cut ends) VHH: EVQLVESGGGLVQAGGSLRLSCAASGRTFSSYAMAWYRQAPGKEREYVAAIRWSGGTAYYADSVQGRFTISRDNAKNTVYLQMNSLKPEDTAVYYCANRAPDTRLRPYLYDYWGQGTQVTVSS",
    "UNIT_DESCRIPTOR": "nM",
    "REPORTED_VALUE": 10.4
  },
  {
    "BINDER": "DLLBII136C07 (VHH, not shown: small tags and cut ends) VHH: EVQLVESGGGLVQPGGSLRLSCAASGFTFGSYDMSWVRRSPGKGPEWVSSINSGGGSTYYADYVKGRFTISRDNAKNTLYLQMNSLKPEDTAVYYCAADRYIWARQGEYWGAYEYDYWGQGTQVTVSS",
    "UNIT_DESCRIPTOR": "nM",
    "REPORTED_VALUE": 10.9
  },
  {
    "BINDER": "DLLBII133G05 (VHH, not shown: small tags and cut ends) VHH: EVQLVESGGGLVQPGGSLRLSCAASGFTFGSYDMSWVRRSPGKGPEWVSAINSGGGSTYYTDYVKGRFTISRDNAKNTLYLQMNSLKPEDTAVYYCAADRYIWARQGEYWGAYAYDYWGQGTQVTVSS",
    "UNIT_DESCRIPTOR": "nM",
    "REPORTED_VALUE": 8.5
  }
]

Query DLLBII129B05 (VHH, not shown: small tags and cut ends) VHH: EVQLVESGGGLVQAGGSLRLSCAASGRTFSSYAMAWYRQAPGKEREYVAAIRWSGGTAYYADSVQGRFTISRDNAKNTVYLQMNSLKPEDTAVYYCANRAPDTRLAPYEYDHWGQGTQVTVSS yields EC50 of 9.7
